# target-system: His6-TEV-PDGFRβ (557-1016) (Homo sapiens (Human))
# Sequence (P09619 whole entry, looked up): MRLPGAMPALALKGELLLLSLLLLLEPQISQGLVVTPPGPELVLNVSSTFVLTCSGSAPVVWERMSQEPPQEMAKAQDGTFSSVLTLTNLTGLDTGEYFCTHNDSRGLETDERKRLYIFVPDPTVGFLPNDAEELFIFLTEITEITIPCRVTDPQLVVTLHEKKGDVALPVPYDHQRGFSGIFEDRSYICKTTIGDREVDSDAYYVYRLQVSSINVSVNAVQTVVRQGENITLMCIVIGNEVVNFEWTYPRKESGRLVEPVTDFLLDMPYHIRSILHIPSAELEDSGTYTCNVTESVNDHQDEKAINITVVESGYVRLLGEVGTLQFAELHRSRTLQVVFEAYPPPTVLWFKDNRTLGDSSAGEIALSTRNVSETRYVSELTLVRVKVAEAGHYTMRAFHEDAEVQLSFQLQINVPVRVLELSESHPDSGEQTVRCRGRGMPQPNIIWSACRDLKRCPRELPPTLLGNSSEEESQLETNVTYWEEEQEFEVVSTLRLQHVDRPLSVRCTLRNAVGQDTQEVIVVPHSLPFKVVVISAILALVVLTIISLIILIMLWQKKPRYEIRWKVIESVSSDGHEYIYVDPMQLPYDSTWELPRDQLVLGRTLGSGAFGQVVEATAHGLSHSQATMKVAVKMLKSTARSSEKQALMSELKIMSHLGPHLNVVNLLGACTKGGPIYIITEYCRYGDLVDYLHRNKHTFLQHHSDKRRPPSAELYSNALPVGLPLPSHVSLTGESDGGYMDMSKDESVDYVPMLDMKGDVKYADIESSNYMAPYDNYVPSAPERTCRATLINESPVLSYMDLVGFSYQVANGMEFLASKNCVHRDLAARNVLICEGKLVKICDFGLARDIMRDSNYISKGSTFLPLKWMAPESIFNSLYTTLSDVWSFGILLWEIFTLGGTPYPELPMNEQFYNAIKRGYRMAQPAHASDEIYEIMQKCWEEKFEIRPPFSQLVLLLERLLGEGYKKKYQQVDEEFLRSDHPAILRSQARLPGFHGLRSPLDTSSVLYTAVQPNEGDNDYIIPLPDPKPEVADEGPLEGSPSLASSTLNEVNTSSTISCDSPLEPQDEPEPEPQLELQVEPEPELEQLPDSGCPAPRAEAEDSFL
# test: PDGFRβ HTRF Assay
# Type: biochemical
# assay-conditions: 800 μM ATP, 0.5 μM TK-substrate biotin peptide, 30 min pre-incubation, 3 hours reaction; read-out: PDGFR HTRF IC50
Entries and their measured IC50 follow.
property: IC50

[[record]]
chem_smiles = "Cc1ncc(NC(=O)CN2CCCC2(C)C)cc1Nc1nn(C)c2nc(Nc3cnn(C)c3)ncc12"
property = "IC50"
result = "0.2 nM"

[[record]]
chem_smiles = "Cc1ncc(C(=O)NCCN2CCC3(CC3)C2)cc1Nc1nn(C)c2nc(Nc3cnn(C)c3)ncc12"
property = "IC50"
result = "0.25 nM"

[[record]]
chem_smiles = "COCCN(CCNC(=O)c1cnc(C)c(Nc2nn(C)c3nc(Nc4cnn(C)c4)ncc23)c1)C1CCC1"
property = "IC50"
result = "0.39 nM"

[[record]]
chem_smiles = "COCCn1cc(Nc2ncc3c(Nc4cc(C(=O)NCCN5CCCC56CCC6)cnc4C)nn(C)c3n2)cn1"
property = "IC50"
result = "0.38 nM"

